For each of the variants below, state its protein stability index.
B1: ZNF207 (parent)
chain: CHICHKKLYTGPGLAIHCMQVHKE

# Variants of: B1
# experimental_protocol: protein stability index of a GFP-peptide fusion (GPS, HEK-293T) (PSI 1-6); higher = more stable;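 also: lentivirally expressed fusions sorted by FACS into six bins by GFP to DsRed ratio, PSI derived from sequencing read proportions per bin multiplied by bin number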
# measurement_conditions: c terminus: a fixed tail appended
Number only, please.

Task: State its protein stability index: T10A
Result: 3.47

Task: State its protein stability index: L14K
Result: 3.1

Task: State its protein stability index: H2F
Result: 2.76

Task: State its protein stability index: A15W
Result: 2.27

Task: State its protein stability index: K6Y
Result: 2.72

Task: State its protein stability index: K23V
Result: 3.19

Task: State its protein stability index: V21K
Result: 3.27

Task: State its protein stability index: G11A
Result: 2.67

Task: State its protein stability index: C1L
Result: 1.94

Task: State its protein stability index: E24G
Result: 2.55

Task: State its protein stability index: I3W
Result: 2.73

Task: State its protein stability index: M19C
Result: 4.56

Task: State its protein stability index: G13C
Result: 3.65

Task: State its protein stability index: K7F
Result: 4.02

Task: State its protein stability index: K7L
Result: 4.3

Task: State its protein stability index: Y9K
Result: 3.29

Task: State its protein stability index: T10H
Result: 2.68

Task: State its protein stability index: A15K
Result: 3.38

Task: State its protein stability index: H2N
Result: 3.65

Task: State its protein stability index: I16Q
Result: 3.9

Task: State its protein stability index: G11K
Result: 3.34

Task: State its protein stability index: K6E
Result: 4.41
